Assay: viability gain of MRP-1-high H69AR cells under doxorubicin, pilot screen, MRP-1 activator project, CellTiter-Glo, duplicate (AID 807);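 further: compound pretreatment 18-22 h then 72 h combined with doxorubicin; 0% = doxorubicin alone and 100% = vehicle without doxorubicin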
Conditions: H69AR viability with doxorubicin, CellTiter-Glo luminescence; at 10 µM; stronger effect = higher value
readout_kind: viability increase (%)
Express the result in % but write the number alone.

Input: Look up viability increase of Cc1ccc(C2CC(c3ccc(Cl)cc3)n3nc(N)nc3N2)cc1 (centres undefined) and report it.
Output: -0.27

Input: Given O=C(Cn1ncc2c(=O)oc3ccccc3c21)NCC1COc2ccccc2O1 (centres undefined) , respond with its viability increase.
Output: -1.36

Input: Determine from records and report viability increase for O=C(Nc1sc2c(c1C(=O)O)CCCCC2)c1ccco1
Output: -1.32

Input: Give viability increase for the following molecule: CCC1Oc2nc(SC)nnc2-c2ccccc2N1C(=O)c1ccccc1 (centres undefined)
Output: -5.16

----------
Experiment: RAM signaling pathway blockade in yeast – S. cerevisiae, Pdr1DBD-CYC8 efflux-inhibited sensitized strain, primary screen (AID 1298);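 further: 0% = DMSO untreated cells without growth and 100% = 10 µM 1-NA-PP1 full growth; higher means more yeast growth rescued from 5-FOA killing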
Conditions: S. cerevisiae cbk1-as DSE1-URA3 strain, 5-FOA growth OD615, 2 d; at 50 µM; stronger effect = higher value
Listing of entries alongside the reported RAM network inhibition.
State just the number; it will be interpreted in %.

Example entries and their recorded answers appear below.
> print(dat)
                                   molecule            readout.kind  value.units  result.value
1  CCOC(=O)c1c(C)c(-c2ccccc2)n(CC(=O)N2CCCC2)c1C  RAM network inhibition            %          2.73
2  CCCCCCC1C(C#N)=C(N)OC2=C1C(=O)CCC2 (stereo unspecified)  RAM network inhibition            %          4.66
3  Cc1ccc(CCN2C(=O)CCC2(C)C(=O)NC2CCCC2)cc1 (stereo unspecified)  RAM network inhibition            %          5.93

Input: Let me know recorded RAM network inhibition for COc1ccc(OC)c(S(=O)(=O)NCCc2cn3ccsc3n2)c1 , thanks.
Output: 3.59

Input: Determine its reported RAM network inhibition: O=C(O)CCSc1nnc(-c2ccccc2)n1-c1ccccc1
Output: 0.72

Input: Tell me measured RAM network inhibition for CCC(C)NC(=O)c1cnc2n(c1=O)CCS2 (stereo unspecified) please.
Output: 1.25

----------
Assay: growth suppression of PTEN-deleted HCT116, pilot screen, cell-based, HCT116 clonal line, CellTiter-Glo (AID 824);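 further: 0% = 20 µM Hyamine control and 100% = vehicle cell control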
Details: 60 h, at 10 µM, stronger effect = lower value
Inconclusive results are not listed.
So basically: is viability under 90%? Then fulfilled. Not under? Then not fulfilled.

Input: Given the entry O=C(COC(=O)c1cccs1)Nc1ccccc1 , would its reported viability be below 90%?
Output: not fulfilled

Input: Quick check: viability of COc1ccccc1NC(=O)Nc1ccnn1C1CCCCC1 under 90%?
Output: not fulfilled

Input: Take the molecule CCOC(=O)c1c(NC(=O)c2cccs2)sc2c1CCCC2 and say whether its viability is less than 90%.
Output: fulfilled

Input: In plain terms, does O=C(CSc1cn(CCNC(=O)c2ccccc2)c2ccccc12)NCc1ccco1 come in under 90% for viability?
Output: fulfilled

Input: Regarding O=C(Nc1nc(-c2ccccn2)cs1)c1ccc(Cl)s1 , kindly confirm whether its viability is beneath 90%.
Output: fulfilled

Input: Is the reported viability for COCCCNC(=O)CN(c1ccc(Cl)c(Cl)c1)S(C)(=O)=O strictly below 90%?
Output: not fulfilled

Input: In the record for CCCCCn1c(CN2CC(C)OC(C)C2)nc2c1c(=O)n(C)c(=O)n2C (stereo unspecified) , is viability less than 90%?
Output: fulfilled

Input: In plain terms, does CCOC(=O)C1C(c2cccc(Cl)c2Cl)NC(=O)NC1(O)C(F)(F)F (stereo unspecified) come in under 90% for viability?
Output: not fulfilled

Input: Strictly below 90% in viability? CCCCn1c(CN2CCN(C(=O)c3ccco3)CC2)nc2c1c(=O)n(C)c(=O)n2C
Output: not fulfilled

Input: Please indicate whether the reported viability of COc1ccc(S(=O)(=O)Cc2ccc(C(=O)NCc3cccnc3)o2)cc1 is strictly below 90%.
Output: fulfilled

Input: Bench note: check whether Cc1cc(C)cc(NC(=O)CSc2nnc(-c3ccccc3)n2N)c1 shows viability below 90%
Output: not fulfilled

Input: Regarding CCN(CC)CCCNC(=O)c1cc2c(-c3ccc(Cl)cc3)nn(C)c2s1 , kindly confirm whether its viability is beneath 90%.
Output: fulfilled

Input: Please check: viability for O=C1c2ccccc2C(Nc2ccc3c(c2)OCCO3)N1c1ccc(Cl)cn1 (stereo unspecified) , strictly under 90% or not?
Output: fulfilled

Input: Given the entry COc1cccc(NC=C2C(=O)OC(C)(C)OC2=O)c1 , would its reported viability be below 90%?
Output: not fulfilled

Input: Does COc1cccc(NC(=O)CSc2nnc(Cn3c(=O)sc4ccccc43)n2C)c1 have viability strictly under 90%?
Output: not fulfilled

Input: Does the reported viability of the following molecule sit strictly below 90%? COc1ccc(Cl)cc1NC(=O)c1cnc2sccn2c1=O
Output: fulfilled

Input: Is 90% strictly greater than the molecule's reported viability? molecule: Cn1cccc1Cc1nnc(SCC(=O)NC2CCCC2)n1-c1ccc(F)cc1
Output: not fulfilled

Input: Please state whether viability is below 90% for CCOC(=O)c1cnn(CC2CCCCC2)c1N
Output: not fulfilled

Input: Item CCc1cccc(OCC(=O)Nc2ccc(S(=O)(=O)Nc3onc(C)c3C)cc2)c1 : viability beneath 90%, strictly?
Output: not fulfilled
